Listed binders paired with reported % of internalization at 1 µg/ml (CCL1 at 300 nM = 100%), HTRF
- System Tested: hCCR8 SNAP-tag (human, UniProt P51685 1-355, SNAP-tag labelled with Lumi4-Terbium)
- Test Name: cell-based or functional assay
Numeric only. Scale: %

Worked cases, answers included:
- Binder: "Ref #4 (137-H3L2 (LM-108) of WO 2022/078277) (antibody, human IgG1, V domains shown) VH: EVQLVESGGGLVQPGGSLKLSCAASGFTFNTYAMNWVRQASGKGLEWVARIRSKANNYATYYADSVKDRFTISRDDSKNTLYLQMNNLKTEDTAVYYCVRDRSRGEDYAMDYWGQGTLVTVSS VL: DIVMTQSPLSLPVTPGEPASISCRSSKSLLHSNANTYLYWFLQKPGQSPQLLIYRMSNLASGVPDRFSGSGSGTAFTLKISRVEAEDVGVYYCMQHLEYPFTFGQGTKLEIK"
  Quantitative Result: 95
- Binder: "humanized anti-CCR8 mAb 2-14 (antibody, human IgG1, kappa, V domains shown, Humanized, human IgG1 / kappa) VH: QVQLVQSGPEVVKPGASVKVSCKTSGYTFTEYTIHWVRQAPGQSLEWVGGINPNNGNTRYDQKFQGRVTITRDKSASTAYMELRSLTSEDTAVYYCARVARSSGSGPYAMDYWGQGTTVTVSS VL: DVVMTQSPLSLPVTLGDQASISCRCSQSLLHTNGDTYLHWYLQRPGQSPRLLIYKVSNRFSGVPDRFSGSGSGTDFTLKISRVEAEDVGVYFCSQSTHVPYTFGGGTKVEIKR"
  Quantitative Result: 44
- Binder: "Ref #1 (TPP-21360 of WO 2021/260210) (antibody, human IgG1, V domains shown, Benchmark; variable regions cloned into vectors encoding heavy and light chains of human IgG1, produced in CHO) VH: EVQLLESGGGLVQPGGSLRLSCAASGFTFSSYGMHWVRQAPGKGLEWVSAINWNGGSTGYADSVKGRFTISRDNSKNTLYLQMNSLRAEDTAVYYCARGHHSGYDGRFFDYWGQGTLVTVSS VL: QSVLTQPPSVSGAPGQRVTISCTGSSSNIGAGYNVHWYQQLPGTAPKLLIYTNNRRPSGVPDRFSGSKSGTSASLAISGLRSEDEADYYCAAWDASLSGWVFGGGTKLTVL"
  Quantitative Result: 126
- Binder: "Ref #3 (Anti-CCR8-1 of US 2021/0238292 A1) (antibody, human IgG1, V domains shown) VH: QVQLVQSGAEVKKPGASVKVSCKASGYTFTSYYMHWVRQAPGQGLEWMGIINPSGGSTSYAQKFQGRVTMTRDTSTSTVYMELSSLRSEDTAVYYCARAVRNRFRFDYWGQGTLVTVSS VL: QSALTQPASVSGSPGQSITISCTGTSSDVGSYNLVSWYQQHPGKAPKLMIYEVSKRPSGVSNRFSGSKSGNTASLTISGLQAEDEADYYCSSYAGSSTFVVFGGGTKLTVL"
  Quantitative Result: 100

Incoming: For the binder humanized anti-CCR8 mAb 2-15 (antibody, human IgG1, kappa, V domains shown, Humanized, human IgG1 / kappa) VH: QVQLQQSGPEVVKPGASVKVSCKTSGYTFTEYTIHWVRQSHGQSLEWVGGINPNNGNTRYDQKFKGRVTITIDKSSSTAYMELRSLTSEDTAVYYCARVARSSGSGPYAMDYWGQGTTVTVSS VL: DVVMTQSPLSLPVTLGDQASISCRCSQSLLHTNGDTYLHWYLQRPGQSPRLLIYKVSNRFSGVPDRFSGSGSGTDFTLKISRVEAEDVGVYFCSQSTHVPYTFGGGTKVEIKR , what % of internalization at 1 µg/ml (CCL1 at 300 nM = 100%), HTRF is on record?
Outgoing: 44
